test system: HL-60 cells; test: Long-term proliferation (LTP) assay, CellTiterGlo (Example 103); type: cell-based; settings: Homo sapiens, 168 h, Day 7, LTP assay, read-out: Day 7 IC50
Quick reference: IC50 of the listed items.
endpoint name: IC50 (nM)

INSERT INTO results (molecule, endpoint_name, readout_unit, assay_value) VALUES
  ('CN(C)C/C=C/C(=O)NC1CN(c2ccnc(NC(=O)Nc3ccc(-c4cc5c(N6CCOCC6)ncnc5[nH]4)cc3)c2)C1', 'IC50', 'nM', 680),
  ('C=CC(=O)NC1CCCN(Cc2ccnc(C(=O)Nc3ccc(-c4cc5c(N6CCOCC6)ncnc5[nH]4)cc3)c2)C1 (stereo not drawn)', 'IC50', 'nM', 260),
  ('C=CC(=O)NC1CN(c2ccnc(NC(=O)Nc3ccc(-c4cc5c(N6CCOCC6)ncnc5[nH]4)cc3)c2)C1', 'IC50', 'nM', 600);

---

Measured IC50 values are reported for all entries that follow.
Test system: MOLM-13 cells
Assay: Long term proliferation assay, Cell Titer-Glo read-out
Format: cell-based, human
Conditions: Homo sapiens, MOLM-13, 336 h, MOLM-13; Day 14; Cell Titer-Glo; read-out: Day 14 IC50
Protocol: Compounds of invention are tested in the 5 suspension lines by 14-day long-term proliferation assay. […] To do this take the total viable cell count calculated using step: • 1. […] To calculate growth for days 4, 7, 11, and 14: • 1. […] The growth inhibition was calculated with the formula ((untreated cell numbers-treated cell numbers)/untreated cell)). • 7. […]
endpoint name: IC50 (nM)

INSERT INTO assay_data (compound, readout_unit, assay_value) VALUES
  ('C=CC(=O)NC1CCCN(Cc2ccnc(C(=O)Nc3ccc(-c4cc5c(N6CCOCC6)ncnc5[nH]4)cc3)c2)C1 (centres unmarked)', 'nM', 80),
  ('CN(C)C/C=C/C(=O)Nc1ccc(CC(=O)Nc2ccc(-c3cc4c(N5CCOCC5)ncnc4[nH]3)cc2)cc1', 'nM', 360);

---

Test system: OCI-AML-3 cells
Assay: Long term proliferation assay, InCell read-out
Type: cell-based
Conditions: Homo sapiens, OCI-AML-3, 264 h, OCI-AML-3, Day 11, read-out: Day 11 IC50
Protocol: Compounds of invention are tested in the 5 suspension lines by 14-day long-term proliferation assay. […] To do this take the total viable cell count calculated using step: • 1. […] To calculate growth for days 4, 7, 11, and 14: • 1. […] The growth inhibition was calculated with the formula ((untreated cell numbers-treated cell numbers)/untreated cell)). • 7. […]
pIC50: −log10 of the molar value.
Reported pIC50 is given for each of the following compounds.
endpoint name: pIC50

INSERT INTO assay_data (compound, assay_value) VALUES
  ('CN(C)C/C=C/C(=O)Nc1ccc(CC(=O)Nc2ccc(-c3cc4c(N5CCOCC5)ncnc4[nH]3)cc2)cc1 [Compound 5]', 6.34),
  ('C=CC(=O)NC1CCCN(Cc2ccnc(C(=O)Nc3ccc(-c4cc5c(N6CCOCC6)ncnc5[nH]4)cc3)c2)C1 (centres unmarked) [Compound 10]', 6.92);

---

test system: MV4-11 (MLL-AF4) cells; assay: Long-term proliferation (LTP) assay, CellTiterGlo (Example 103); type: cell-based, human; details: Homo sapiens, 336 h; MV4-11 (MLL-AF4); Day 14; LTP assay; read-out: Day 14 IC50
pIC50: −log10 of the molar value.
endpoint name: pIC50

INSERT INTO assay_data (compound, assay_value) VALUES
  ('C=CC(=O)NC1CCCN(Cc2ccnc(C(=O)Nc3ccc(-c4cc5c(N6CCOCC6)ncnc5[nH]4)cc3)c2)C1 (stereo not shown)', 6.70),
  ('C=CC(=O)NC1CN(c2ccnc(NC(=O)Nc3ccc(-c4cc5c(N6CCOCC6)ncnc5[nH]4)cc3)c2)C1', 6.42),
  ('CN(C)C/C=C/C(=O)NC1CN(c2ccnc(NC(=O)Nc3ccc(-c4cc5c(N6CCOCC6)ncnc5[nH]4)cc3)c2)C1', 6.46),
  ('C=CC(=O)NC1CN(c2ccnc(NC(=O)Nc3ccc(-c4nc5c(N6CCOCC6)nccc5[nH]4)cc3)c2)C1', 5.91);
